Target protein (sequence): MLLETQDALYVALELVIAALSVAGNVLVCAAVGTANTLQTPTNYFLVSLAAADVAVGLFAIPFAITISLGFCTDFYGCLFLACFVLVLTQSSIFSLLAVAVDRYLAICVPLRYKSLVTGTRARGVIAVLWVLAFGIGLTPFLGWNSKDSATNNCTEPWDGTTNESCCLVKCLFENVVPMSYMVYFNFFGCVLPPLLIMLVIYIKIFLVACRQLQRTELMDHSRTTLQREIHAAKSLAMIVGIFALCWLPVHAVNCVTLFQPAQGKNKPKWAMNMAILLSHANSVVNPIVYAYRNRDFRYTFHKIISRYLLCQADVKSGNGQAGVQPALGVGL
VALUE_KIND: Ki (nM)

(I) COCC(C)(C#N)NC(=O)c1ccn2nc(-c3cccc(C#N)c3)c(-c3cc(C)nc(Cl)c3)c2n1 (stereo not drawn)
(II) Fc1cccc(-c2nn3ccc(NCc4ccccc4)nc3c2Br)c1
(III) CC(C)(O)CNC(=O)c1ccn2nc(-c3cccc(C#N)c3)c(-c3cncs3)c2n1
IN: Put the above entries in order of falling Ki. The reply should contain the labels ordered as requested.
OUT: II, III, I
(II: 10000 nM, III: 792 nM, I: 3 nM)

====

# TARGET_ENTITY: human Adenosine A2a receptor (Homo sapiens, UniProt P29274)
# Sequence (P29274 whole entry): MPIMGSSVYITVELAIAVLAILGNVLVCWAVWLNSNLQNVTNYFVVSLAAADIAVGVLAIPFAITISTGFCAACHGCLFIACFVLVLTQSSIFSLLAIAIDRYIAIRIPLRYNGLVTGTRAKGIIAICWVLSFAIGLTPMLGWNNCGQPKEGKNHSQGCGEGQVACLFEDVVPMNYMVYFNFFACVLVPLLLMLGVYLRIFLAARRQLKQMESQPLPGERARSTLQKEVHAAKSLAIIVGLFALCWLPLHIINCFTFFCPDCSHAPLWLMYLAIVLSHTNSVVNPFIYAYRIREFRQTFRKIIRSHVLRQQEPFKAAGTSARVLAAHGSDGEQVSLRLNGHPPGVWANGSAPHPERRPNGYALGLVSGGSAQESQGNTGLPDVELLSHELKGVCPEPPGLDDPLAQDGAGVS
pKi: −log10 of the molar value.
VALUE_KIND: pKi

| COMPOUND | pKi |
| --- | --- |
| N#Cc1c(-c2ccco2)nn2ccc(N3CCN(Cc4ccccn4)CC3)nc12 | 7.31 |
| Cc1cc(-c2c(-c3cccc(C#N)c3)nn3ccc(C(=O)NCC4CNC(=O)C4)nc23)cc(C)n1 (stereo not shown) | 8.24 |

(a) Cc1cc(-c2c(-c3cccc(C#N)c3)nn3ccc(N)nc23)cc(C)[n+]1[O-]
(b) COCC(C)(C#N)NC(=O)c1ccn2nc(-c3cccc(C#N)c3)c(-c3cc(C)nc(Cl)c3)c2n1 (stereo not shown)
IN: Please let me know which one, a or b , has a lower measured pKi value. Lab note: record the label of whichever item you select.
OUT: a

====

# TARGET_ENTITY: human Adenosine A2b receptor (Homo sapiens, UniProt P29275)
# Sequence (P29275 1-332): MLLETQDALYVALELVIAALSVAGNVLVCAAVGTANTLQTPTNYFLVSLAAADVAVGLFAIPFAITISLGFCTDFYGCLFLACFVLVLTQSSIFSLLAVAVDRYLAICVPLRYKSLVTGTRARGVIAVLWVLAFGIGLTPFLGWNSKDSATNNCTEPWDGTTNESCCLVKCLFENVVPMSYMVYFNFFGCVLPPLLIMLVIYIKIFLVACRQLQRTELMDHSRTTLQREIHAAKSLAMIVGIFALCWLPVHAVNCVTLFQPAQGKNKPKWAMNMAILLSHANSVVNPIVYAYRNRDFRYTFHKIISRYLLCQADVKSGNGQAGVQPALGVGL
pKi: −log10 of the molar value. Where a name gives a salt, the structure may show the parent alone.
VALUE_KIND: pKi

# example entries with known answers
| COMPOUND | pKi |
| --- | --- |
| N#Cc1c(-c2ccco2)nn2ccc(N3CCN(Cc4c(F)cc(F)cc4F)CC3)nc12 | 5.85 |
| Cc1cc(-c2c(-c3cccc(C#N)c3)nn3ccc(N4C[C@@H]5NCCO[C@H]5C4)nc23)cc(Cl)n1 | 6.83 |
| Cc1cc(-c2c(-c3cccc(C#N)c3)nn3ccc(C(=O)N4CCC5(CC4)NC(=O)NC5=O)nc23)cc(C)n1 | 8.52 |

(1) N#Cc1c(-c2ccco2)nn2ccc(NC[C@H]3CCCN3)nc12 [Example 80, hydrochloride]
(2) Cc1cc(-c2c(-c3cccc(C#N)c3)nn3ccc(NCC4(O)CNC4)nc23)cc(Cl)n1 [Example 4.11, trifluoroacetate]
(3) Cc1cc(-c2c(-c3cccc(C#N)c3)nn3ccc(C(=O)NC(C)(C)C(C)(C)O)nc23)cc(Cl)n1
IN: Sort low-to-high on pKi, please. Output spec: labels arranged per the requested ranking.
OUT: 1, 3, 2

(A) Cc1cc(-c2c(-c3cccc(C#N)c3)nn3ccc(NC4CCS(=O)(=O)CC4)nc23)cc(Cl)n1
(B) Cc1cc(-c2c(-c3cccc(C#N)c3)nn3ccc(O[C@H]4CCCNC4)nc23)cc(Cl)n1
(C) N#Cc1c(-c2ccco2)nn2ccc(NCCCO)nc12
(D) Cc1cc(-c2c(-c3cccc(C#N)c3)nn3ccc(N4CCOC(CCN(C)C)C4)nc23)cc(Cl)n1 (stereo not shown)
IN: Arrange the 4 compounds by rising pKi, starting with the smallest. Answer with the labels in sequence, matching the requested order.
OUT: C, B, A, D

(I) Cc1cc(-c2c(-c3cccc(C#N)c3C)nn3ccc(C(=O)NCC(C)(C)O)nc23)cc(Cl)n1
(II) Fc1cccc(-c2cc3nc(NCCc4ccccc4)ccn3n2)c1
IN: Please indicate which entry, I or II , has the lower recorded pKi value. Mark your answer with the label of the selected entry.
OUT: II
(II: 5.67, I: 7.49)

(1) Cc1cc(-c2c(-c3cccc(C#N)c3)nn3ccc(N)nc23)cc(C#N)n1
(2) N#Cc1cccc(-c2nn3ccc(N)nc3c2-c2cn[nH]c2)c1
IN: Identify the item whose pKi is the smaller number: 1 or 2 Answer with the label corresponding to your selection.
OUT: 2
(2: 6.62, 1: 7.92)

====

# TARGET_ENTITY: human Adenosine A1 receptor (Homo sapiens, UniProt P30542)
# Sequence (P30542 1-326): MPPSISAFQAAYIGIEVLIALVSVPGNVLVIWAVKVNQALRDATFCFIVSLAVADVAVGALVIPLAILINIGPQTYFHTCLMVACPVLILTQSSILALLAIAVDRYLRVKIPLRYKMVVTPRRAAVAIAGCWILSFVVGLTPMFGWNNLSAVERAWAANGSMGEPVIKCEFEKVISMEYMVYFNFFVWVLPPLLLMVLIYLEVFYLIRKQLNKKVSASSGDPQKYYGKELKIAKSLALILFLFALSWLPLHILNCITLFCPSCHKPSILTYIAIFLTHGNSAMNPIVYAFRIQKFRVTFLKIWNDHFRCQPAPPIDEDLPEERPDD
Counter-ions that a name gives are not always drawn.
VALUE_KIND: Ki (nM)

Answered examples (5):
| COMPOUND | TARGET_ENTITY | Ki [nM] |
| --- | --- | --- |
| Cc1cc(-c2c(-c3cccc(C#N)c3)nn3ccc(C(=O)NCC4(O)COC4)nc23)cc(C)n1 [Example 92.3] | human Adenosine A1 receptor (Homo sapiens, UniProt P30542) | 212 |
| Cc1cc(-c2c(-c3cccc(C#N)c3)nn3ccc(C(=O)NC[C@@H]4CCC(=O)N4)nc23)cc(C)n1 [Example 92.33] | human Adenosine A1 receptor (Homo sapiens, UniProt P30542) | 652 |
| N#Cc1c(-c2ccco2)nn2ccc(N)nc12 [Example 49] | human Adenosine A1 receptor (Homo sapiens, UniProt P30542) | 172 |
| Cc1cc(-c2c(-c3cccc(C#N)c3)nn3ccc(N)nc23)cc(C(F)F)n1 [Example 26.1] | human Adenosine A1 receptor (Homo sapiens, UniProt P30542) | 17 |
| c1ccc(CNc2ncn3nc(-c4ccco4)cc3n2)cc1 [Example 84] | human Adenosine A1 receptor (Homo sapiens, UniProt P30542) | 389 |

(I) Cc1cc(-c2c(-c3cccc(C#N)c3)nn3ccc(OC4CCNCC4)nc23)cc(Cl)n1 [Example 24]
(II) Cc1cc(-c2c(-c3cccc(C#N)c3)nn3ccc(C(=O)NCC4CC(O)C4)nc23)cc(Cl)n1 (stereo not shown) [Example 6.10]
(III) Cc1cc(-c2c(-c3cccc(C#N)c3)nn3ccc(NC(=O)N[C@@H]4CCNC4)nc23)cc(Cl)n1 [Example 31.3, trifluoroacetate]
(IV) Cc1cc(-c2c(-c3cccc(C#N)c3)nn3ccc(C(=O)NC[C@@H]4CNC(=O)C4)nc23)cc(C)n1 [Example 92.28]
(V) Cc1cc(-c2c(-c3cccc(C#N)c3)nn3ccc(C(=O)N[C@@H](C)C(C)(C)O)nc23)cc(Cl)n1 [Example 6]
IN: Rank items: key Ki, increasing. Please reply with the labels ordered as requested. Many thanks.
OUT: V, III, I, IV, II
(V: 57 nM, III: 151 nM, I: 216 nM, IV: 345 nM, II: 581 nM)

(A) Cc1cc(-c2c(-c3cccc(C#N)c3)nn3ccc(C(=O)NCC4(N)CC(F)(F)C4)nc23)cc(Cl)n1 [Example 7.10]
(B) Cc1cc(-c2c(-c3cccc(C#N)c3)nn3ccc(C(=O)N[C@H]4COC[C@H]4O)nc23)cc(Cl)n1 [Example 6.17]
IN: Please indicate which item has the smaller measured Ki: A versus B In your reply, give the label of the chosen option.
OUT: B
(B: 110 nM, A: 181 nM)

(A) Cc1cc(-c2c(-c3cccc(C#N)c3)nn3ccc(N4CCOC(CCN(C)C)C4)nc23)cc(Cl)n1 (stereo not shown) [Example 2.21]
(B) Cc1cc(-c2c(-c3cccc(C#N)c3)nn3ccc(C(C)(C)O)nc23)cc(Cl)n1 [Example 8]
(C) Cn1nccc1-c1c(-c2ccco2)nn2ccc(NCc3ccccc3)nc12 [Example 53.1]
(D) Cc1cc(-c2c(-c3cccc(C#N)c3)nn3ccc(N)nc23)cc(N)n1 [Example 27.1]
(E) Cn1nccc1-c1c(-c2cccc(C#N)c2)nn2ccc(C(=O)NCC(C)(C)O)nc12 [Example 12.5]
IN: Thanks in advance: please rank these 5 entries by Ki, highest to lowest. Order the labels as requested and list them.
OUT: E, B, A, D, C
(E: 2380 nM, B: 291 nM, A: 178 nM, D: 62 nM, C: 34 nM)

Where these numbers come from: patent US20230203041A1
